Tested on: COLO 205 colon
Test: NCI-60 one-dose screen, 48 h (100 = growth as untreated, 0 = no growth, -100 = all killed)
Settings: 10 µM unless noted
The panel holds about 83,000 compounds, 20% with a hit somewhere; the sample as a whole holds those more often. Calls of active or inactive are those of the source. Rule for the calls: active = growth percent below 10; inactive = the rest.
Entries and their growth

Example cases with answers are listed next.
# growth (molecule: COc1ccc(C(O)c2cc3c(N)c(C(=O)Nc4cccc(Br)c4C)sc3nc2C)cc1 (configuration not stated) ) is -7.14% (active)

Reported growth for CCCC1C(C(=O)OCC)=C(N)Oc2cc(O)ccc21 (configuration not stated) was 96.3% (inactive)

Query Clc1cc(Cl)cc(N2N=C(c3cccc(Nc4ccncc4)c3)CC2c2ccc(Br)cc2)c1 (configuration not stated) yields growth of -40.5% (active)

# molecule `CC(=O)O[C@]1(C(C)=O)CC[C@H]2[C@@H]3C=C(Cl)C4=CC(=O)CC[C@]4(C)[C@H]3CC[C@@]21C` ; its growth = 133% (inactive)

Record summary for `O=C(CCN1CCCC1)Nc1ccc2c(Nc3ccccc3)c3ccccc3nc2c1` : reported growth = -37.4% (active)

***
Field growth (entry `c1ccc(-c2nn(-c3ccccc3)[n+](-c3cccc4ccccc34)n2)cc1` ) reads 3.41% (active)

The reported value for `NC(=O)c1cccc(-c2ccccc2N2CCCCC2)c1` in terms of growth is 121% (inactive)

----------
System: KM12 colon
Test: NCI-60 one-dose screen, 48 h (100 = growth as untreated, 0 = no growth, -100 = all killed)
Conditions: 10 µM unless noted
Procedure: Growth inhibition of the KM12 human tumor cell line is measured as a screen for anti-cancer activity. Cells are grown in 96 well plates and exposed to the test compound for 48 hours. Compounds are tested at a single concentration, which is 10^-5 M for most compounds. The reported endpoint is percent growth (GI% or GIPRCNT), where numbers from 0 - 100% represent growth inhibition, and numbers from -100% - 0 represent cell death. For example, a value of 40 represents 60% growth inhibition. […]
About 83,000 compounds went through this panel and 20% of them were active in at least one assay; those are over-represented in the sample as a whole.
Please use 1 (yes) whenever growth is not below 20%, and 0 (no) whenever it is.

Does growth meet or surpass 20% for `O=C1Nc2c(ccc(Cl)c2Cl)/C1=C/c1ccc(F)cc1` ?
1 (yes)

Quick check: does CCCCCCC/C=C/[C@H]1O[C@]2(O)C(=O)C=C3C[C@@H](O[C@@H]4O[C@H](CO)[C@@H](O)C(O)[C@@H]4O)C[C@@H]3[C@H]2C=C1C (stereo partly specified) have growth greater than or equal to 20%?
0 (no)

Could you verify whether the entry `C=CCn1c(SCC(=O)Nc2ccc(C(=O)/C=C/c3cc(OC)c(OC)c(OC)c3)cc2)nnc1-c1cc(-c2ccc(S(C)(=O)=O)cc2)nc2ccccc12` shows growth of no less than 20%?
1 (yes)

Quick check: does `O=C1c2ccccc2-c2c1c1c(NCCCO)nc3ccccc3c1n2Cc1ccccc1` have growth greater than or equal to 20%?
1 (yes)

----------
Tested on: SK-MEL-28 melanoma
Assay: NCI-60 one-dose screen, 48 h (100 = growth as untreated, 0 = no growth, -100 = all killed)
Details: 10 µM unless noted
Compounds without any hit were thinned out: in the full panel of roughly 83,000, 20% have a hit.
Label Satisfied when growth is at or above 60%; anything below gets Not satisfied.

Completed entries (count: 3):
Determine whether this molecule has growth no lower than 60%: COc1cc(NCC(O)CN(CC(C)C)C2CCCC2)c2ncccc2c1 (stereo not given)
Satisfied

Does growth meet or surpass 60% for COc1ccc(C2CC(c3cccc(Nc4ccncc4)c3)=NN2c2ccccc2)cc1 (stereo not given) ?
Not satisfied

Reported growth reaches at least 60% for `O=C(NNc1nc(Cl)nc(N2CCN(C(c3ccccc3)c3ccccc3)CC2)n1)c1ccccc1` ?
Not satisfied

Continuing:
# bool: growth of `CN(C)CCCn1c2c(c3ccc(-c4ccn[nH]4)cc3c1=O)C(=O)c1ccccc1-2` >= 60%
Satisfied

Reported growth at or above 60%? `CCCCCCCCCCN=C(N)N=C(N)N`
Satisfied

Does `C[C@H]1[C@H](C)CC[C@]2(CO)CC[C@]3(C)C(=CC[C@@H]4[C@@]5(C)Cc6c([nH]c7ccccc67)C(C)(C)[C@@H]5CC[C@]43C)[C@H]12` have a reported growth of at least 60%?
Satisfied

Check this molecule for growth at or above 60%: `O=c1[nH]nc(-c2ccc(Br)cc2)cc1Cc1ccc(O)cc1`
Satisfied

Could you verify whether the entry `COc1ccc2c(Nc3ccc(NS(C)(=O)=O)cc3)c3ccccc3nc2c1` shows growth of no less than 60%?
Not satisfied

Does the molecule `Cc1ccc2[nH]c(=O)cc(-n3nncc3COc3ccc(C=O)cc3)c2c1` have recorded growth that is 60% or more?
Satisfied

Assess whether reported growth for `O=C1c2ccccc2C(=O)c2c(NCCN=Cc3ccccc3O)cccc21` sits at 60% or higher.
Satisfied

Does `Cc1nc2sc(C(=O)Nc3ccccc3)c(N)c2cc1C(=O)c1ccc(C(F)(F)F)cc1` have a reported growth of at least 60%?
Satisfied

Given CCN1C(=O)N(CC)C2C1NN=c1s/c(=C3\C(=O)Nc4ccccc43)c(=O)n12 (stereo not given) , state whether its growth is at least 60%.
Not satisfied

Does `C(=N\Nc1ncc(-c2cc3cc4c(cc3o2)OCO4)s1)/c1c[nH]c2ccccc12` have a reported growth of at least 60%?
Not satisfied

API: above_or_equal(metric=growth, cutoff=60%) for item `O=S(=O)(O)c1cc(O)c2c(N=Nc3ccc(Nc4ccccc4)c4c(S(=O)(=O)O)cccc34)cc(S(=O)(=O)O)cc2c1`
Satisfied

Identify whether the reported growth of the following molecule is 60% or greater: COc1ccc(/C=N/C2=C(C#N)C(c3ccccc3[N+](=O)[O-])c3ccc4ccccc4c3O2)cc1 (stereo not given)
Satisfied

----------
System: 786-0 renal
Experiment: NCI-60 one-dose screen, 48 h
Conditions: 10 µM unless noted
The panel holds about 83,000 compounds, 20% with a hit somewhere; the sample as a whole holds those more often. The source made the active and inactive calls. The calls were made as follows: active = growth percent below 10; inactive = the rest.
// one of 1 (yes) for active, 0 (no) for inactive, no free text

Recorded results for 6 molecules are shown here.
Lab log entry: CCN(CC)CCCC(C)Nc1cc(-c2cccc(OC(F)(F)F)c2)nc2ccc(N3CCCC3)cc12 (stereo unspecified) — outcome as called in the assay?
1 (yes)

What was the test verdict on `CCOC(=O)c1ccc(Nc2ccnc(SCC(=O)c3ccc(C#N)cc3)n2)cc1` ?
0 (no)

Which outcome was entered for the molecule O=C1OC(=O)C2C1CC=CC2c1ccccc1 (stereo unspecified) in this test?
0 (no)

Could you please tell me the result logged for `CSc1nc(O)c(-c2ccccc2)c(=O)[nH]1` in this assay?
0 (no)

Recorded call for `O=C(NNc1nc(Cl)nc(N2CCN(C(c3ccccc3)c3ccccc3)CC2)n1)c1ccccc1` ?
0 (no)

Which outcome was entered for the molecule `CC(C)(C#N)N1CCN(c2ccccc2Cl)CC1` in this test?
0 (no)

# evaluate next
Could you please tell me the result logged for `CN(C)Cc1c(-c2ccccc2)[nH]c2ccccc12` in this assay?
0 (no)

----------
Tested on: HOP-92 NSCLC
Test: NCI-60 one-dose screen, 48 h
Details: 10 µM unless noted
Method: Growth inhibition of the HOP-92 human Non-Small Cell Lung tumor cell line is measured as a screen for anti-cancer activity. Cells are grown in 96 well plates and exposed to the test compound for 48 hours. Compounds are tested at a single concentration, which is 10^-5 M for most compounds. The reported endpoint is percent growth (GI% or GIPRCNT), where numbers from 0 - 100% represent growth inhibition, and numbers from -100% - 0 represent cell death. […]
The panel holds about 83,000 compounds, 20% with a hit somewhere; the sample as a whole holds those more often. Active and inactive are the calls of the source. Rule for the calls: active = growth percent below 10; inactive = the rest.
Hi! Could you answer with just one of these? active, inactive

Example entries begin here.
What did this assay record as the result for CCC1(CC)NC(=O)c2c(c3ccc(Cl)c(Cl)c3n2C)C1C#N (configuration not stated) ?
inactive

Returns: the outcome recorded for `Cc1ccc(/C=C/C(=O)c2ccc(N)cc2)c(C)c1` in this assay.
inactive

Can you look up the reported call for `CC[C@@]12C=CCN3CC[C@]4(c5cc(NC(=O)COc6cc(OCC(=O)Nc7cc8c(cc7OC)N(C)[C@H]7[C@@](O)(C(=O)OC)[C@H](OC(C)=O)[C@]9(CC)C=CCN%10CC[C@]87[C@@H]%109)cc7oc(-c8ccccc8)cc(=O)c67)c(OC)cc5N(C)[C@@H]4[C@](O)(C(=O)OC)[C@H]1OC(C)=O)[C@H]32` for me?
inactive

Further cases:
Could you check what this test reported for `COc1cccc(CCC(=O)c2cc3c(N)c(C(=O)Nc4cccc(Cl)c4C)sc3nc2C)c1` ?
inactive

Tell me the recorded outcome of this test for COC(=O)C(c1ccccc1)C(CC(=O)c1ccccc1)c1ccccc1 (configuration not stated) .
inactive

Assay result, entry CCC(C)C(N)C(=O)NNc1n[nH]c(=S)n1N (configuration not stated) — outcome?
inactive

Lab log entry: `CCN(CC)S(=O)(=O)c1cccc([N+](=O)[O-])c1` — outcome as called in the assay?
inactive

Assay outcome for `CC(C)CCSc1nc(NNC(N)=O)c(C#N)c(-c2ccccc2)n1` : what was it?
inactive

Which outcome was entered for the compound `COc1ccc(-c2nc(N/N=C/c3ccco3)nc(N3CCOCC3)c2C#N)cc1` in this test?
inactive

Test call for this compound, please: `C[C@@H]1CN(Cc2ccc(/C=C/c3n[nH]c4ccc5nc(-c6cn[nH]c6C(F)(F)F)c6c(c5c34)CCCC6)cc2)C[C@H](C)O1`
inactive

Given `CC1(C)CC[C@]2(C(=O)NCC#CCN3CCOCC3)CC[C@]3(C)C(=CC[C@@H]4[C@@]5(C)Cc6c([nH]c7ccccc67)C(C)(C)[C@@H]5CC[C@]43C)[C@@H]2C1` , state the outcome it received in this test.
inactive

Dear colleague, could you share the recorded outcome for `CCCCCCCCCCCCCCCC(=O)OC[C@@]1(O)C[C@@]23CC[C@@H]4C(C)(C)CCC[C@@]4(C)[C@@H]2CC[C@H]1C3` when you have a moment?
inactive
